Known z-score of a selection of molecules
TEST NAME: FRG1 expression reporter modulators in myotubes – cell-based, C2C12 myotubes, firefly/Renilla luciferase, luminescence, FRG1 inhibition for FSHD, primary screen (AID 1084)
CONDITION INFO: FRG1 promoter luciferase, higher = more signal, called active from +8 up or from −8 down

| MOLECULE | z-score |
| --- | --- |
| CCOC(=O)C[C@H]1[C@H](OC(=O)c2ccc(C(=O)c3ccccc3)cc2)[C@@H](NC(=O)c2ccc(-c3ccccc3)cc2)c2cc(OCCCO)ccc2N1C(=O)Cc1ccc(OC)cc1 | -0.111 |
| CC1CC/C=C\[C@H]2OC34C=CCN(C(C)C)C(=O)[C@H]3N(CCO)C(=O)[C@@H]4C2C(=O)O1 (stereo partly drawn) | 0.0746 |
| CCOC(=O)C[C@H]1[C@H](OC(=O)c2ccc(C(=O)c3ccccc3)cc2)[C@@H](NC(=O)C2CCCCC2)c2cc(OCCCO)ccc2N1C(=O)c1ccc2ccccc2n1 | 0.0852 |

---

TEST NAME: probe aNOTCH3 binding on compound microarray – biochemical, small-molecule microarray, 635/667 nm fluorescence, primary screen (AID 1120);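 also: probe is a biotin-tagged antibody raised against NOTCH3 rather than NOTCH3 protein; score merges spot fluorescence near 667 nm with spot signal to noise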
CONDITION INFO: higher = more signal

| MOLECULE | composite z-score |
| --- | --- |
| CS(=O)(=O)CCOC(=O)C1=CC(c2ccc(CO)cc2)=CC(C2CC2)N(Cc2sc3ccccc3c2Cl)C=C1C(=O)OCCS(C)(=O)=O (stereo unspecified) | 0.029 |
| COC(=O)C1(CC(C)C)C=C2C(=C(c3ccccc3)C(=O)C2C)CN1 (stereo unspecified) | 1.31 |
| COc1ccc([Si](C)(C)[C@@H]2[C@@H](CC(=O)N(CCO)Cc3ccccc3)O[C@]3(C(=O)N(Cc4cccc(N5CCCCC5=O)c4)c4ccccc43)[C@H]2C)cc1 | -0.22 |
| CN(C)C(=O)[C@]1(Cc2ccccc2CN=[N+]=[N-])N=C(c2ccc(OCCCO)cc2)O[C@@H]1c1ccccc1 | 0.113 |
| COc1ccc([Si](C)(C)[C@@H]2[C@@H](CCO)O[C@]3(C(=O)N(Cc4ccccc4)c4ccc(N5CCOC5=O)cc43)[C@H]2C)cc1 | -0.0647 |
| COc1cc2c(cc1O)C(C1CC1)N(Cc1cccc(OC(F)(F)F)c1)CC2 (stereo unspecified) | -0.0824 |

---

TEST NAME: viability profiling in MM1S myeloma cells – cell-based, resazurin fluorescence, basal, 24 h, PK04 Diversity Set, profiling panel (AID 1174);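 also: MM1S multiple myeloma cell line; test concentration not given here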
CONDITION INFO: higher = more signal, called active from +8 up or from −8 down
Activity calls are given as the source filed them.
Known z-score of a selection of compounds

| COMPOUND | z-score |
| --- | --- |
| COC(=O)C1=CC(CCCO)=CC(c2cccs2)N(C)C=C1C(=O)OC (stereo unspecified) | -0.482 (inactive) |
| COc1cc(NN2C(C(O)c3ccc(N(C)C)cc3)C=CC3C(=O)N(c4ccccc4)C(=O)C32)cc(OC)c1OC (stereo unspecified) | -0.581 (inactive) |
| C[N+](C)(C)CCCC[C@@H]1NC(=O)[C@@H]2C[C@H](C(=O)NCCCCCCN)[C@H](c3cccc(OCCO)c3)N2C1=O | -0.0181 (inactive) |
| C=CCN1C(=O)[C@]2(CCS(=O)(=O)c3ccccc3)N=C(c3ccc(OCCCO)cc3)O[C@@H]2c2ccccc21 | -1.36 (inactive) |
| N#Cc1ccc(NN2C(C(O)c3ccc(Br)cc3)C=CC3C(=O)N(c4ccccc4)C(=O)C32)cc1 (stereo unspecified) | -0.299 (inactive) |
| C=CC[C@]1(C(=O)N2CCOCC2)COC(c2ccc(OCCCO)cc2)=N1 | 0.574 (inactive) |
| Cc1ccc(S[C@]2(C(=O)NCC(F)(F)F)CC(=O)N(Cc3cc(C(F)(F)F)cc(C(F)(F)F)c3)[C@@H]2c2ccc(CO)cc2)cc1 | -0.266 (inactive) |
| COCC(=C=CC[C@H](O)c1ccc(OCCO)cc1)CCO | 0.654 (inactive) |
| COc1ccc([Si](C)(C)[C@H]2[C@H](CC(=O)N3Cc4ccccc4C[C@H]3CO)O[C@@]3(C(=O)N(Cc4ccc(N5CCOC5=O)cc4)c4ccccc43)[C@@H]2C)cc1 | -3.41 (inactive) |
| Cc1ccc(S[C@]2(C(=O)NCCN3CCOCC3)CC(=O)N(Cc3ccccc3Cl)[C@@H]2c2ccc(CO)cc2I)cc1 | -2.72 (inactive) |
| CC1CC/C=C\[C@H]2OC34C=CCN(c5ccc6ccccc6c5)C(=O)[C@H]3N(CCCO)C(=O)[C@@H]4C2C(=O)O1 (stereo partly specified) | -0.644 (inactive) |
| O=C1NC(=O)C2C1C=CC(C(O)c1ccco1)N2Nc1ccc(Cl)cc1Cl (stereo unspecified) | -1.41 (inactive) |
| CC(C)C(CO)N1C(=O)[C@@H]2C3C(=O)OCCC/C=C\[C@H]3OC23C=CCN(c2ccc4ccccc4c2)C(=O)[C@@H]13 (stereo partly specified) | -0.235 (inactive) |
| O=C(c1ccccc1)N1C(=O)[C@]2(Cc3ccccc31)N=C(c1ccc(OCCCO)cc1)O[C@@H]2c1ccccc1 | -5.95 (inactive) |
| [N-]=[N+]=Nc1ccccc1C[C@]1(C(=O)NCCN2CCOCC2)COC(c2ccc(OCCCO)cc2)=N1 | 0.892 (inactive) |
| O=C1OCCC/C=C\[C@H]2OC34C=CCN(c5ccc6ccccc6c5)C(=O)[C@H]3N(CCO)C(=O)[C@@H]4C12 (stereo partly specified) | -0.997 (inactive) |
| CC(C)[Si](C#CCCCC#N)(O[C@H](c1ccccc1)c1cn(Cc2ccccc2)nn1)C(C)C | 0.118 (inactive) |
| COc1ccc([Si](C)(C)[C@@H]2[C@@H](CCO)O[C@]3(C(=O)N(Cc4ccccc4)c4ccc(N5CCOC5=O)cc43)[C@H]2C)cc1 | -2.51 (inactive) |
| CCOC(=O)C[C@H]1[C@H](OC(=O)c2ccc(C(=O)c3ccccc3)cc2)[C@@H](NC(=O)c2ccc3ccccc3n2)c2cc(OCCCO)ccc2N1C(=O)Cc1ccc(OC)cc1 | 0.0487 (inactive) |
| CCCCC(CC)C(O)C1C=CC2C(=O)N(C)C(=O)C2N1Nc1ccccc1 (stereo unspecified) | -0.916 (inactive) |
| O=C1C2C=CC(C(O)c3ccco3)N(Nc3ccccc3F)C2C(=O)N1c1ccccc1 (stereo unspecified) | -0.936 (inactive) |

---

TEST NAME: growth effects on S. cerevisiae YJM789 – YJM789 clinical isolate, OD600, 24 h, basal, primary screen (AID 1089);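 also: growth of clinical yeast isolate S. cerevisiae YJM 789 seeded 1000 cells per well; test concentration not given here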
CONDITION INFO: higher = more signal, called active from +8 up or from −8 down
Class definitions on z-score: 1: < 0.1; 2: ≥ 0.1 and < 1; 3: ≥ 1

| MOLECULE | CLASS NAME |
| --- | --- |
| CCCCCN1CC=CC23O[C@@H]4/C=C\CCCOC(=O)C4[C@H]2C(=O)N(C(C)CO)[C@@H]3C1=O (stereo not given in full) | 1 |
| CC(C)[Si]1(C(C)C)OCc2cc(-c3ccc(-c4ccc(Cl)c(Cl)c4)o3)nc(-c3ccccc3)c21 | 1 |
| CCCNC(=O)[C@@]1(Sc2ccc(C)cc2)CC(=O)N(C2Cc3ccccc3C2)[C@@H]1c1ccc(CO)cc1I | 1 |
| CC(C)N1C(=O)c2ccccc2[C@@H](C(=O)NCCN2CCOCC2)[C@@H]1c1ccc(CO)cc1 | 2 |
| Cc1cc(C)c(C(O)C2C=CC3C(=O)N(c4ccccc4)C(=O)C3N2Nc2ccccc2F)c(C)c1 (stereo not given) | 3 |
| Cn1cccc1C(O)C1C=CC2C(=O)N(c3ccccc3)C(=O)C2N1Nc1ccccc1 (stereo not given) | 2 |
| CO[C@H]1O[C@H](CO)[C@@H](OC(=O)Nc2ccc(Br)cc2)[C@@H]2OC(=O)[C@@H](Cc3ccccc3)C/C=C/C[C@H](Cc3ccccc3)C(=O)O[C@@H]12 | 3 |
| COc1cc(NN2C(C(O)c3ccc(N(C)C)cc3)C=CC3C(=O)N(c4ccccc4)C(=O)C32)cc(OC)c1OC (stereo not given) | 2 |
